Would you kindly list IC50 for each of these molecules?
target: IDH1-R132C recombinant protein (Homo sapiens (Human), UniProt O75874, R132C); assay: IDH1-R132C enzymatic assay (inhibition of NADPH consumption, diaphorase/resazurin readout); type: biochemical; settings: read-out: Enzyme IDH1 R132C IC50 (Range)
Sequence (O75874 whole entry R132C): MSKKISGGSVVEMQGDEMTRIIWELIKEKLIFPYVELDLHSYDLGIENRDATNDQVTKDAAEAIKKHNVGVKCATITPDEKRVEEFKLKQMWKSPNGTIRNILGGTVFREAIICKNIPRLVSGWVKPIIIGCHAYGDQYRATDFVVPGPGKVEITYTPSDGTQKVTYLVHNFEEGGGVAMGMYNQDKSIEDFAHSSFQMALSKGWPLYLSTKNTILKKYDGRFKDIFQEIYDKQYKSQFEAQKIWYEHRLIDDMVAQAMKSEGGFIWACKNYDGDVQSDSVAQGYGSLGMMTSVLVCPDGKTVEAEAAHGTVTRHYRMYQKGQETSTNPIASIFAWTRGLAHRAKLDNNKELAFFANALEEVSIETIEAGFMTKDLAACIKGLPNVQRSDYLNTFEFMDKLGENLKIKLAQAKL

# molecule COc1nc(N[C@@H](C)c2cc3cc(Cl)c(O[C@H](C)c4ccccn4)cc3[nH]c2=O)ncc1C#N [Compound I-158] ; its IC50 = < 0.1 µM

# molecule CC(C)[C@H]1COC(=O)N1c1ccnc(N[C@@H](C)c2cc3cc(Cl)ccc3[nH]c2=O)n1 [Compound I-42] ; its IC50 = < 0.1 µM

# molecule C[C@H](Nc1ncc(C#N)c(O)n1)c1cc2cc(Cl)c(OCc3ccccn3)cc2[nH]c1=O [Compound I-152] ; its IC50 = 1 to 10 µM

# molecule CC(c1ccnc(N[C@@H](C)c2cc3cc(Cl)ccc3[nH]c2=O)n1)S(C)(=O)=O (stereo partly shown) [Compound I-135] ; its IC50 = > 10 µM

# molecule COCc1ccccc1-c1ccnc(N[C@@H](C)c2cc3cc(Cl)ccc3[nH]c2=O)n1 [Compound I-100] ; its IC50 = 1 to 10 µM

# molecule C[C@H](Nc1nccc(-c2c[nH]nc2C(F)(F)F)n1)c1cc2cc(Cl)ccc2[nH]c1=O [Compound I-86] ; its IC50 = > 10 µM

# molecule CC(=O)Nc1ccnc(N[C@@H](C)c2cc3cc(Cl)c(F)cc3[nH]c2=O)n1 [Compound I-179] ; its IC50 = < 0.1 µM
